Molecular target: human JAK2 (Homo sapiens, UniProt O60674)
Construct: catalytic domain (amino acids 808-1132; catalog number PV4210); GST; purchased Invitrogen PV4210
Sequence (O60674 808-1132): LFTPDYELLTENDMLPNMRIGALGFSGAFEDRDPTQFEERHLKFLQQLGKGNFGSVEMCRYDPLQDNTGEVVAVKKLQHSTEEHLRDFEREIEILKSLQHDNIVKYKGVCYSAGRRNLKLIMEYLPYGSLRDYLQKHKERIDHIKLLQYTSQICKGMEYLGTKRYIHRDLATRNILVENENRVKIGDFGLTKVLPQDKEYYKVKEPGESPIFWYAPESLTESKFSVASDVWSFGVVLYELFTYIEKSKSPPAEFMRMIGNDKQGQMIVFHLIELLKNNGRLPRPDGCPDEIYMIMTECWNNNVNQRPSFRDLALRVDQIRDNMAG
Assay: JAK2 inhibition assay (polyGT substrate / Ulight-JAK1 peptide)
Assay type: biochemical
Details: recombinant human JAK2 catalytic domain; polyGT or Ulight-JAK1 peptide assay
pIC50: −log10 of the molar value.
MEASUREMENT TYPE: pIC50

>>> test_result("COc1ccc(COc2ccc(C)c(N(C)c3cc4c(cn3)ncn4C)c2)cc1")
"< 6.00"
>>> test_result("CCc1cc(N2CC(N)C2)ncc1N(C)c1cc2c(cn1)ncn2C")
"< 6.00"
>>> test_result("COc1ccc(Cc2ccc(N(C)c3cc4c(cn3)ncn4C)c(C)c2)cc1")
"< 6.00"
>>> test_result("CCc1cc(CNS(=O)(=O)N(C)C)ccc1N(C)c1cc2c(cn1)ncn2C")
"7.00 to 11.00"
>>> test_result("CCc1cc(CC#N)ccc1N(C)c1cc2c(cn1)ncn2C")
"7.00 to 11.00"
>>> test_result("CCc1cc(CNS(C)(=O)=O)cc(F)c1N(C)c1cc2c(cn1)ncn2C")
"7.00 to 11.00"
>>> test_result("Cc1c(OCC(C)C)cccc1N(C)c1cc2c(cn1)ncn2C")
"6.00 to 6.30"
>>> test_result("CCc1cc(C(C#N)N2CC(NC(=O)OC(C)(C)C)C2)ccc1N(C)c1cc2c(cn1)ncn2C (stereo not shown)")
"7.00 to 11.00"
>>> test_result("CN(c1cc2c(cn1)ncn2C)c1ccccc1Cl")
"< 6.00"
>>> test_result("CCc1cc(N2CC(C(=O)OC)C2)ncc1N(C)c1cc2c(cn1)ncn2C")
"6.30 to 7.00"

Each compound below has a recorded value; state its pIC50.
1. CCc1cc(C(C#N)N2CCC2)ccc1N(C)c1cc2c(cn1)ncn2C (stereo not shown)
2. CCc1ccccc1Oc1cc2c(cn1)ncn2C
3. CCc1cc(C(C)O)ccc1N(C)c1cc2c(cn1)ncn2C (stereo not shown)
4. CN(c1ccc(OCc2ccccc2)cc1)c1cc2c(cn1)ncn2C
5. CN(c1cc2c(cn1)ncn2C)c1ccc(C2CN(CC(F)(F)F)C2)cc1OC(F)F

7.00 to 11.00
< 6.00
7.00 to 11.00
< 6.00
6.30 to 7.00

Your task in this section: give pIC50 for each listed record.
1. CCc1cc(C(C#N)N2CCC(C(N)=O)CC2)ccc1N(C)c1cc2c(cn1)ncn2C (stereo not shown)
2. CCc1cc(CN2CCC(S(C)(=O)=O)C2)ccc1N(C)c1cc2c(cn1)ncn2C (stereo not shown)

["7.00 to 11.00", "6.30 to 7.00"]

Batch request: pIC50 per item, same order as input.
1. CCc1cc(CN(C)S(C)(=O)=O)cc(F)c1N(C)c1cc2c(cn1)ncn2C
2. CCc1cc(N2CC(C#N)C2)ncc1N(C)c1cc2c(cn1)ncn2C

["7.00 to 11.00", "7.00 to 11.00"]
